Assay: In vivo pharmacokinetics after intratracheal instillation
Parameters: species or system mouse
Conditions: male, CD1, mouse, inhaled or intranasal, 0.5 mg kg^−1; mice, intratracheal, lung tissue; read-out: Tmax lung
Value kind: Tmax (min)
Respond numerically; units are min and should not be typed.

Lab note: FC(F)(F)c1cc(NCc2cn(-c3ccc(Oc4ccccc4)cc3)nn2)ccn1 gave Tmax of 30

Per the record, NC[C@H]1O[C@H](O[C@H]2[C@H](O)[C@@H](O[C@H]3O[C@H](CO)[C@@H](O)[C@H](N)[C@H]3O)[C@H](N)C[C@@H]2N)[C@H](N)C[C@@H]1O has Tmax of 30

* * *

The entries below are paired with their reported half-life.
Assay: Metabolic stability half-life (matrix not given)
Type: in vitro ADME
Details: matrix not stated; read-out: metabolic stability half-life t 1/2

Study these solved cases before continuing.
- Structure notation: "FC(F)(F)c1cc(NCc2cn(-c3ccc(Oc4ccccc4)c(Cl)c3)nn2)ccn1"
  Reported: "19 min"
- Structure notation: "FC(F)(F)c1cc(NCc2cn(-c3ccc(Oc4ccccc4)cc3)nn2)ccn1"
  Reported: "10 min"
- Structure notation: "COc1ccc(-n2cc(CNc3ccnc(C(F)(F)F)c3)nn2)cc1Cl"
  Reported: "3 min"

Switching to the query record.
The value of half-life measured for the compound FC(F)(F)Oc1ccc(-n2cc(CNc3ccnc(C(F)(F)F)c3)nn2)cc1Cl turned out to be 55 min

* * *

Target: CYP2C9 (Homo sapiens)
Construct: Cyprotex (contract assay)
Sequence (P11712 whole entry): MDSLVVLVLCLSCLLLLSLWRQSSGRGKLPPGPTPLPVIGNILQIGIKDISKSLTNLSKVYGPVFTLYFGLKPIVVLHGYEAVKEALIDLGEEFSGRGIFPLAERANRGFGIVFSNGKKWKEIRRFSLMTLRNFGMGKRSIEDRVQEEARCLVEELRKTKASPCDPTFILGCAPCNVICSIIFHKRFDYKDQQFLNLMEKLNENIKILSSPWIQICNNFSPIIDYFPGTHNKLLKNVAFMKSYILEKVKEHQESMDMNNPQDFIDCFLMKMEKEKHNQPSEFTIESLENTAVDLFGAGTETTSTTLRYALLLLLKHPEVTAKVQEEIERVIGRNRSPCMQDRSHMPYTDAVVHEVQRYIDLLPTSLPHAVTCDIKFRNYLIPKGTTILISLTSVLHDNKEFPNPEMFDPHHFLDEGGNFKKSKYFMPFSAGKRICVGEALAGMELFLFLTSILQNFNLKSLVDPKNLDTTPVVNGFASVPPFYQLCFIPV
Assay: CYP inhibition (Cyprotex)
Format: in vitro ADME
Details: read-out: CYP inhibition 2C9
Value kind: IC50 (µM)
Report the figure in µM without appending any unit label.

Noted IC50 for FC(F)(F)c1cc(NCc2cn(-c3ccc(Oc4ccccc4)cc3)nn2)ccn1 , tested on CYP2C9 (Homo sapiens): 16.4

* * *

Experiment: In vivo pharmacokinetics after intratracheal instillation
Set-up: species or system mouse
Details: male, CD1, mouse, inhaled or intranasal, 0.5 mg kg^−1; mice, intratracheal, BALF; read-out: Tmax BALF
Catalogue of Tmax readings, one per entry.
Response body: numeric value in min, unit text excluded.

- Structure notation: "FC(F)(F)c1cc(NCc2cn(-c3ccc(Oc4ccccc4)cc3)nn2)ccn1"
  Reported: 30

Moving on to the next compound.
Consider NC[C@H]1O[C@H](O[C@H]2[C@H](O)[C@@H](O[C@H]3O[C@H](CO)[C@@H](O)[C@H](N)[C@H]3O)[C@H](N)C[C@@H]2N)[C@H](N)C[C@@H]1O . Its measured Tmax is 30

* * *

Target: PqsR (Pseudomonas aeruginosa, UniProt Q9I4X0)
Construct: which expresses PqsR and the β-galactosidase LacZ under the control of the pqsA promoter; expressed in transfected cells; host or cells: E. coli DH5α carrying plasmid pEAL08-2
Sequence (Q9I4X0 whole entry): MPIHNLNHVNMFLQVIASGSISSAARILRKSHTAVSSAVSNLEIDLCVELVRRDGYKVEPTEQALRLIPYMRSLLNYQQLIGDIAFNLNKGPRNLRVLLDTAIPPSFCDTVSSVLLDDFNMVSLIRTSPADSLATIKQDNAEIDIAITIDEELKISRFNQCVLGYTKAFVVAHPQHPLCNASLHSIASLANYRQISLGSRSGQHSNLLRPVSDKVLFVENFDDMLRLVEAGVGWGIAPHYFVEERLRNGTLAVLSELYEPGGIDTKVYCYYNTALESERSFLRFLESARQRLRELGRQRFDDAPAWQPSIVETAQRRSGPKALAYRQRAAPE
Experiment: PqsR β-galactosidase reporter-gene assay in E. coli DH5α
Assay type: cell-based
Settings: E. coli reporter-gene assay; result in words
Value kind: IC50 PqsR

- Molecule: "FC(F)(F)c1cc(NCc2cn(-c3ccccc3Cl)nn2)ccn1 [Compound 7]"
  Reported: "inactive"
- Molecule: "Fc1cccc(-n2cc(CNc3ccnc(C(F)(F)F)c3)nn2)c1 [Compound 5]"
  Reported: "inactive"
- Molecule: "Fc1ccccc1-n1cc(CNc2ccnc(C(F)(F)F)c2)nn1 [Compound 6]"
  Reported: "inactive"

Measured values drawn from paper PMC8224453 for this set.
